Value source: the supplement of paper PMC11061612

Tested on: SW1116 (Colorectal Carcinoma);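 also: after 72 h of two-drug dosing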
Experiment: Bliss excess, mean over the matrix (fraction); higher = more synergy
Endpoint label: Bliss excess

COc1nnc2ccc(N3CCC(c4ccc(OCCN5CCN(C)C(=O)[C@H]5C)cc4)CC3)nn12 [AZD5153] + Cc1c2c(nn1C)CSCc1cc(n(C)n1)CSc1cc(c3ccccc3c1)OCCCc1c(C(=O)O)n(C)c3c-2c(Cl)ccc13 [AZD5991] (first compound max 1 µM, 7x7, partner max 1 µM); 0.0091
COc1cccc(OCCCN)c1-c1cc(Nc2cnc(C#N)cn2)n[nH]1 [Prexasertib] + O=C(c1cc(Cc2n[nH]c(=O)c3ccccc23)ccc1F)N1CCN(C(=O)C2CC2)CC1 [Olaparib] (first compound max 1 µM, 7x7, partner max 10 µM); -0.0415
Cc1c2c(nn1C)CSCc1cc(n(C)n1)CSc1cc(c3ccccc3c1)OCCCc1c(C(=O)O)n(C)c3c-2c(Cl)ccc13 [AZD5991] + CN(C)CCCOc1ccc(-c2ccc3ncc4c(c3c2)n(C2CCOCC2)c(=O)n4C)cn1 [AZD0156] (first compound max 1 µM, 7x7, partner max 1 µM); -0.0032
COc1cccc(OCCCN)c1-c1cc(Nc2cnc(C#N)cn2)n[nH]1 [Prexasertib] + C[C@@H]1COCCN1C2=NC(=NC(=C2)C3(CC3)[S@](=N)(=O)C)C4=C5C=CNC5=NC=C4 [AZD6738] (first compound max 1 µM, 7x7, partner max 10 µM); 0.0637
C=CCn1c(=O)c2cnc(Nc3ccc(N4CCN(C)CC4)cc3)nc2n1-c1cccc(C(C)(C)O)n1 [AZD1775] + C[C@@H]1COCCN1C2=NC(=NC(=C2)C3(CC3)[S@](=N)(=O)C)C4=C5C=CNC5=NC=C4 [AZD6738] (first compound max 1 µM, partner max 10 µM); -0.0075
O=C(c1cc(Cc2n[nH]c(=O)c3ccccc23)ccc1F)N1CCN(C(=O)C2CC2)CC1 [Olaparib] + COc1nnc2ccc(N3CCC(c4ccc(OCCN5CCN(C)C(=O)[C@H]5C)cc4)CC3)nn12 [AZD5153] (first compound max 10 µM, 7x7, partner max 1 µM); -0.0745
COc1nnc2ccc(N3CCC(c4ccc(OCCN5CCN(C)C(=O)[C@H]5C)cc4)CC3)nn12 [AZD5153] + CC1(C)CCC(CN2CCN(c3ccc(C(=O)NS(=O)(=O)c4ccc(NCC5CCOCC5)c([N+](=O)[O-])c4)c(Oc4cnc5[nH]ccc5c4)c3)CC2)=C(c2ccc(Cl)cc2)C1 [Venetoclax] (first compound max 1 µM, 7x7, partner max 1 µM); -0.036
CC1(C)CCC(CN2CCN(c3ccc(C(=O)NS(=O)(=O)c4ccc(NCC5CCOCC5)c([N+](=O)[O-])c4)c(Oc4cnc5[nH]ccc5c4)c3)CC2)=C(c2ccc(Cl)cc2)C1 [Venetoclax] + COc1cc(Nc2ncc3c(n2)-c2ccc(Cl)cc2C(c2c(F)cccc2OC)=NC3)ccc1C(=O)O [Alisertib] (first compound max 1 µM, 7x7, partner max 10 µM); 0.0127
CN(CCO)CC[C@H](CSc1ccccc1)Nc1ccc(S(=O)(=O)NC(=O)c2ccc(N3CCC([C@@H](O)c4ccccc4-c4ccc(Cl)cc4)CC3)cc2)cc1S(=O)(=O)C(F)(F)F [AZD4320] + C1CN(CCC1(C(=O)N[C@@H](CCO)C2=CC=C(C=C2)Cl)N)C3=NC=NC4=C3C=CN4 [Capivasertib] (first compound max 1 µM, 7x7, partner max 3 µM); -0.0612
N#Cc1cnc(Nc2cc(NC[C@H]3CNCCO3)c(C(F)(F)F)cn2)cn1 [SRA737] + Nc1ccn([C@@H]2O[C@H](CO)[C@@H](O)C2(F)F)c(=O)n1 [Gemcitabine] (first compound max 10 µM, 7x7, partner max 0.3 µM); 0.0727

Could you now consider this next compound?
input: Dear colleague, I am looking for the recorded Bliss excess of the following compound: CN(CCO)CC[C@H](CSc1ccccc1)Nc1ccc(S(=O)(=O)NC(=O)c2ccc(N3CCC([C@@H](O)c4ccccc4-c4ccc(Cl)cc4)CC3)cc2)cc1S(=O)(=O)C(F)(F)F [AZD4320] + CS(=O)(=O)CCNCc1ccc(-c2ccc3ncnc(Nc4ccc(OCc5cccc(F)c5)c(Cl)c4)c3c2)o1 [Lapatinib] (first compound max 1 µM, 7x7, partner max 10 µM)
output: 0.0117
